// data source = patent KR20230139570A

molecular target: 인간 CD47 단백질 (Human CD47, SPR analyte) (human, UniProt Q08722 19-139, limits assumed); test: SPR, Biacore 8K, antibody captured, human CD47 as analyte
Sequence (Q08722 19-139 limits assumed): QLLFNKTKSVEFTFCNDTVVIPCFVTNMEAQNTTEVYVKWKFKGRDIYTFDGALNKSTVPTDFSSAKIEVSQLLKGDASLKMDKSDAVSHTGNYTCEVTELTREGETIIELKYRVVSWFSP
Readout name: kon (M⁻¹ s⁻¹)
Respond numerically; units are M⁻¹ s⁻¹ and should not be typed.

binder="AHF16309 전장 항체 (full length antibody, IgG4) (antibody, V domains shown, also called AHF16309 항체) VH: EVQLVQSGSELKKPGASVKVSCKASGYTFTSYWMHWMRQAPGQGLEWIGVIDPNDSYTSYNQGFTGRFVLSVDTSVSTAYLQISSLKAEDTAVYYCARGGKRMMDYWGQGTTVTVSS VL: DVVMTQSPLSLPVTLGQPASISCRSSQSLVHSNGNTYLNWFQQRPGQSPRLLIYKVSNRFPGVPDRFSGSGSGTDFTLKISRVEAEDVGVYYCSQSTHVPFTFGGGTKLEIKR" readout_name=kon recorded_measurement=2.78e+06
binder="Hu3A5V10 전장 항체 (full length antibody, IgG4) (antibody, V domains shown, also called U822EGG010-Hu3A5V10) VH: EVQLVQSGSELKKPGASVKVSCKASGYTFTSYWMHWMRQAPGQGLEWIGVIDPSDSYTSYNQGFTGRFVLSVDTSVSTAYLQISSLKAEDTAVYYCARGGKRAMDYWGQGTTVTVSS VL: DVVMTQSPLSLPVTLGQPASISCRSSQSLVHSNGNTYLHWFQQRPGQSPRLLIYKVSNRFSGVPDRFSGSGSGTDFTLKISRVEAEDVGVYYCSQSTHVPFTFGGGTKLEIKR" readout_name=kon recorded_measurement=1e+06

Query binder follows.
I would be grateful if you could share the reported kon for AHF16312 전장 항체 (full length antibody, IgG4) (antibody, V domains shown, also called AHF16312 항체) VH: EVQLVQSGSELKKPGASVKVSCKASGYTFTSYWMHWMRQAPGQGLEWIGVIDPNDSYTSYNQGFTGRFVLSVDTSVSTAYLQISSLKAEDTAVYYCARGGKRIMDYWGQGTTVTVSS VL: DVVMTQSPLSLPVTLGQPASISCRSSQSLVHSNGNTYLNWFQQRPGQSPRLLIYKVSNRFTGVPDRFSGSGSGTDFTLKISRVEAEDVGVYYCSQSTHVPFTFGGGTKLEIKR .
1.85e+06
